Ref: ChEMBL document CHEMBL1150222

Assay: Cytotoxicity against HGF cells
Type: cell-based
Conditions: human
The reader will find reported CC50 values listed item by item below.
Answer in µM, number only, no unit symbol.

These solved cases illustrate the format of a correct answer.
**Q:** So what does the record say about CC50 for CC(C)=CCc1cc(C(=O)c2cccc(O)c2CC=C(C)C)c(O)cc1O ?
**A:** 90

**Q:** Can you share its CC50? I mean this molecule: C=CC(C)(C)c1c(O)cc2oc3c(O)c(O)c(CC=C(C)C)cc3c(=O)c2c1O
**A:** 58

**Q:** Endpoint output: CC50 of CC(C)=CCc1c(O)cccc1C(=O)c1cc2c(cc1O)OC(C)(C)C=C2 . Value?
**A:** 430

Now for the molecule whose CC50 we want.
**Q:** I have this molecule here, CC(C)=CCc1c(O)cccc1C(=O)c1c(O)cc(O)c2c1OC(C)(C)C=C2 , and I need its recorded CC50.
**A:** 190
